# tested system: Gal4 DNA binding domain fused to the LBD of LXRα in HEK293 cells (Homo sapiens (Human), UniProt Q13133)
# Sequence (Q13133 209-447): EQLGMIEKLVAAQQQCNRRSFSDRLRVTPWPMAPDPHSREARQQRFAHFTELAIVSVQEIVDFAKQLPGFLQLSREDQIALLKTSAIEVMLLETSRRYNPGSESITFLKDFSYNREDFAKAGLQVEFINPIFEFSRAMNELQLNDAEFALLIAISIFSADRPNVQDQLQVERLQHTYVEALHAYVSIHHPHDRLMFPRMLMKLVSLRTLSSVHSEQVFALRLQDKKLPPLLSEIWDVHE
# test summary: LXR luciferase transcriptional reporter gene assay, antagonist mode (200 nM T0901317), LXRα
# Format: cell-based
# conditions used: read-out: Cell LXRα IC50

molecule	units symbol	qualifier symbol	IC50
CS(=O)(=O)c1cccc(N2CCN(C[C@@H]3C[C@@H]4[C@H](C3)C4(F)F)[C@@H](c3ccccc3)C2)c1 (single isomer, unassigned) [48-66]	µM	=	7.36
CS(=O)(=O)c1cccc(N2CCN(C[C@H]3CC[C@H](C(F)F)CC3)[C@@H](c3ccccc3)C2)c1 (single isomer, unassigned) [48-19]	µM	=	1.63
NS(=O)(=O)c1cccc(N2CCN(C[C@H]3CC[C@@H](C(F)F)CC3)[C@@H](c3ccccc3)C2)c1 (single isomer, unassigned) [48-23]	µM	=	4.96
CS(=O)(=O)c1cc(N2CCN(C[C@H]3CC[C@@H](C(F)(F)F)CC3)[C@@H](c3ccc(F)cc3)C2)ccc1F [48-48]	µM	>	10
CC(C)[C@@H]1CN(c2ccc(F)c(S(C)(=O)=O)c2Cl)CCN1c1ncc(Cl)c(C2CC2)n1 [Cpd No 22-2]	µM	=	3.61
CC(C)c1ccc(CN2CCN(c3cccc(S(C)(=O)=O)c3)C[C@@H]2c2ccccc2)cc1 [46-8]	µM	=	8.9
CS(=O)(=O)c1cccc(N2CCN(C[C@H]3CC[C@@]4(CC3)CC4(F)F)[C@@H](c3ccccc3)C2)c1 (single isomer, unassigned) [48-69]	µM	>	10
CC(C)[C@@H]1CN(c2ccc(F)c(S(C)(=O)=O)c2)CCN1c1ncc(Cc2ccc(C(=O)O)cc2)c(C(F)(F)F)n1 [Cpd No 32-1]	µM	=	0.544
CS(=O)(=O)c1cccc(N2CCN(C[C@H]3CC[C@]4(CC3)CC4(F)F)[C@@H](c3ccccc3)C2)c1 (single isomer, unassigned) [48-71]	µM	>	10
Cc1ccc(N2CCN(c3cccc(S(C)(=O)=O)c3)C[C@H]2C(C)C)nc1C1CC1 [40-2]	µM	=	0.792

---

molecules and their reported Cell LXRα efficacy
# tested system: Gal4 DNA binding domain fused to the LBD of LXRα in HEK293 cells (Homo sapiens (Human), UniProt Q13133)
# test summary: LXR luciferase transcriptional reporter gene assay, agonist mode, LXRα
# Assay type: cell-based

molecule	Cell LXRα efficacy
CC(C)[C@@H]1CN(c2ccc(F)c(S(C)(=O)=O)c2)CCN1c1nc2cnccc2s1 [7-58]	6486 (31) %
CS(=O)(=O)c1cccc(N2CCN(C[C@@H]3CC[C@@H](C(F)(F)F)OC3)[C@@H](c3ccc(F)cc3)C2)c1 (single isomer, unassigned) [49-11]	2460 (42) %
NS(=O)(=O)c1cccc(N2CCN(C[C@H]3CC[C@@H](C(F)F)CC3)[C@@H](c3ccccc3)C2)c1 (single isomer, unassigned) [48-23]	319 (43) %
CC(C)[C@H]1CN(c2ccc(CO)c(S(C)(=O)=O)c2)CCN1C[C@H]1CCN(CC(F)(F)F)C1 (single isomer, unassigned) [48-58]	3252 (56) %

---

# tested system: LXR α LBD protein (Homo sapiens (Human), UniProt Q13133)
# Sequence (Q13133 209-447): as above
# test summary: LXR α radioligand binding assay (SPA, competition with [3H]TO901317)
# conditions used: read-out: LXRα Binding Ki
measured endpoint: log10 Ki (log10 of the value in nM)

compound	log10 Ki
CC(C)[C@@H]1CN(c2ccc(F)c(S(C)(=O)=O)c2)CCN1c1nc2ncccc2s1 [7-59]	2.45
Cc1cc(C(F)(F)F)nc(N2CCN(c3ccc(F)c(S(C)(=O)=O)c3)C[C@H]2C(C)C)n1 [7-18]	2.02
CC(C)[C@@H]1CN(c2cccc(S(C)(=O)=O)c2)CCN1c1ccc(C(F)F)cn1 [7-34]	3.52
CC(C)[C@H]1CN(c2cccc(S(C)(=O)=O)c2)CCN1C[C@@H]1CC[C@@H](C(F)(F)F)OC1 (single isomer, unassigned) [Cpd No 49-7]	2.52
CC(C)[C@@H]1CN(c2ccc(F)c(S(C)(=O)=O)c2)CCN1c1ncc(C(F)(F)F)cc1N [Cpd No 21-1]	2.78
COC(=O)c1ccc(N2CCN(c3ccc(F)c(S(C)(=O)=O)c3)C[C@H]2C(C)C)nc1C(F)(F)F [7-43]	2.11

---

# tested system: LXR α LBD protein (Homo sapiens (Human))
# test summary: LXR α radioligand binding assay (SPA, competition with [3H]TO901317)
# conditions used: read-out: LXRα Binding Ki

compound	units symbol	qualifier symbol	Ki
CC(C)[C@@H]1CN(c2cccc(S(C)(=O)=O)c2)CCN1c1ncc(C2CC2)cn1	nM	=	346
CC(C)[C@H]1CN(c2ccc(CO)c(S(C)(=O)=O)c2)CCN1C[C@@H]1CC[C@H](C(F)(F)F)OC1	nM	=	44
CS(=O)(=O)c1cc(N2CCN(C[C@H]3CC[C@@H](C(F)(F)F)CC3)[C@H](c3ccccc3)C2)ccc1C#N (single isomer, unassigned)	nM	=	6550
CS(=O)(=O)c1cccc(N2CCN(C[C@H]3CC[C@@H](C(F)F)CC3)[C@@H](c3ccccc3)C2)c1 (single isomer, unassigned)	nM	=	60
CC(C)[C@@H]1CN(c2ccc(F)c(S(C)(=O)=O)c2)CCN1c1ccnc(OC(F)F)c1	nM	=	45
CC1(C)CCC(CN2CCN(c3cccc(S(C)(=O)=O)c3)C[C@H]2c2ccccc2)CC1	nM	=	2340
COCCCN(C)C(=O)c1cnc(N2CCN(c3ccc(F)c(S(C)(=O)=O)c3)C[C@H]2C(C)C)nc1C(F)(F)F	nM	=	2880
CC(C)[C@H]1CN(c2ccc(CO)c(S(C)(=O)=O)c2)CCN1Cc1ccc(C(F)(F)F)cc1	nM	=	119
CS(=O)(=O)c1cc(N2CCN(C[C@H]3CC[C@H](C(F)(F)F)CC3)[C@H](c3ccccc3)C2)ccc1CO (single isomer, unassigned)	nM	=	10800
CC(C)[C@H]1CN(c2cccc(S(C)(=O)=O)c2)CCN1Cc1ccc(C(F)(F)F)nc1	nM	=	1310
CCOC(=O)c1cnc(N2CCN(c3ccc(-c4nnc(C)s4)c(S(C)(=O)=O)c3)C[C@H]2C(C)C)nc1C(F)(F)F	nM	=	703
CO[C@]1(C(F)(F)F)CC[C@@H](CN2CCN(c3ccc(CO)c(S(C)(=O)=O)c3)C[C@@H]2C(C)C)CC1 (single isomer, unassigned)	nM	=	5
CS(=O)(=O)c1cccc(N2CCN(C[C@H]3CC[C@](C)(O)CC3)[C@H](c3ccccc3)C2)c1 (single isomer, unassigned)	nM	>	3330
NS(=O)(=O)c1cccc(N2CCN(C[C@H]3CC[C@H](C(F)F)CC3)[C@@H](c3ccccc3)C2)c1 (single isomer, unassigned)	nM	=	517
CC(C)[C@@H]1CN(c2ccc(F)c(S(C)(=O)=O)c2)CCN1c1nc2c(F)cccc2s1	nM	=	68
Cc1coc(-c2ccc(N3CCN(c4ncc(CO)c(C(F)(F)F)n4)[C@H](C(C)C)C3)cc2S(C)(=O)=O)n1	nM	=	1160
CS(=O)(=O)c1cccc(N2CCN(c3nccc(C(F)(F)F)n3)[C@@H](C(F)(F)F)C2)c1	nM	=	7190
CS(=O)(=O)c1cccc(N2CCN(CC3CCC(F)(F)CC3)[C@@H](c3ccccc3)C2)c1	nM	=	867
C[C@](O)(c1ccc(CN2CCN(c3cccc(S(C)(=O)=O)c3)C[C@@H]2c2ccccc2)cc1)C(F)(F)F (single isomer, unassigned)	nM	=	3650
CCOC(=O)c1cnc(N2CCN(c3ccc(F)c(S(C)(=O)=O)c3)C[C@H]2C(C)C)nc1C	nM	=	162
CS(=O)(=O)c1cccc(N2CCN(C[C@H]3CC[C@@](C)(O)CC3)[C@H](c3ccccc3)C2)c1 (single isomer, unassigned)	nM	=	30900
CC(C)[C@H]1CN(c2ccc(CO)c(S(C)(=O)=O)c2)CCN1C[C@@H]1CC[C@@H](C(F)(F)F)OC1	nM	=	166
Cc1nc(N2CCN(c3ccc(F)c(S(C)(=O)=O)c3)C[C@H]2C(C)C)ncc1C(=O)N(C)CCCO	nM	>	3330
C[C@@](O)(c1ccc(CN2CCN(c3cccc(S(C)(=O)=O)c3)C[C@@H]2c2ccccc2)cc1)C(F)(F)F	nM	=	6560
CS(=O)(=O)c1cccc(N2CCN(CC3CCCOC3)[C@@H](c3ccccc3)C2)c1 (stereo partly drawn)	nM	>	3330
CC(C)[C@@H]1CN(c2ccc(-c3nc(C(N)=O)cs3)c(S(C)(=O)=O)c2)CCN1c1ncc(CO)c(C(F)(F)F)n1	nM	=	706
CS(=O)(=O)c1cccc(N2CCN(C[C@@H]3C[C@@H]4[C@H](C3)C4(F)F)[C@@H](c3ccccc3)C2)c1 (single isomer, unassigned)	nM	=	804
